target.entity: mAChR M4 (Homo sapiens)
Construct: expressed in transfected cells; host or cells: CHO-K1 cells stably transfected with M4 cDNA and chimeric G-protein Gqi5
Sequence (P08173 1-479): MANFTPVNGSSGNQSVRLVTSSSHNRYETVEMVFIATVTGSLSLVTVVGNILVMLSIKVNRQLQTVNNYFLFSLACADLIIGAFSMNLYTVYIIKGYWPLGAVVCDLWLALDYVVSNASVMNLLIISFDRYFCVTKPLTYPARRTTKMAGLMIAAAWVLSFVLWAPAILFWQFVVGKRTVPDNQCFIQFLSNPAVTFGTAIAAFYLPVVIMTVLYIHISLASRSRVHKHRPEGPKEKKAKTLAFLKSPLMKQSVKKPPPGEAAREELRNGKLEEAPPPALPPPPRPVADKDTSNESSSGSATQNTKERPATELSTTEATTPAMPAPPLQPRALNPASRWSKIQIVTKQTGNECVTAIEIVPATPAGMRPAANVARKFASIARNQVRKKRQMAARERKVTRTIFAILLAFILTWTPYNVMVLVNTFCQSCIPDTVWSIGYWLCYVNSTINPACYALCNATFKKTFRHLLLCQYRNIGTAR
test.method.notes: mAChR M4 cell-based functional assay (calcium mobilization, potentiation of EC20 acetylcholine response)
measurement.setup: mAChR M4 cell-based functional assay; >10,000 estimated for low potency compounds without plateau; read-out: EC50
Mark criterion met only for EC50 values smaller than 400 nM; exact matches and larger values are criterion not met.

{"columns": ["molecule", "discrete.label"],
 "data": [
  ["Cc1nnc2sc(C(=O)N3CC4CN(C(=O)c5ccc(F)cc5)CC4C3)c(N)c2c1C (centres unmarked)", "criterion not met"],
  ["Cc1nnc2sc(C(=O)NCc3ccc(CN4CCCCC4)cc3)c(N)c2c1C", "criterion met"],
  ["Cc1nc(C(F)(F)F)c(S(=O)(=O)N2CC(NC(=O)c3sc4nnc(C)c(C)c4c3N)C2)s1", "criterion met"],
  ["Cc1nnc2sc(C(=O)NC3CCN(S(=O)(=O)c4ccccc4)C3)c(N)c2c1C (centres unmarked)", "criterion not met"],
  ["Cc1nnc2sc(C(=O)NC3CN(C(=O)CCCc4ccccc4)C3)c(N)c2c1C", "criterion met"],
  ["COc1ccc(-c2ccc(CNC(=O)c3sc4nnc(C)c(C)c4c3N)cc2)cn1", "criterion met"],
  ["COc1ccccc1C(=O)N1CC(NC(=O)c2sc3nnc(C)c(C)c3c2N)C1", "criterion not met"],
  ["CCCOC(=O)NC1CCN(C(=O)c2sc3nnc(C)c(C)c3c2N)C1 (centres unmarked)", "criterion not met"]
]}
